biological target: hCA IX (Homo sapiens); construct: gene CA9; recombinant, obtained in-house as reported earlier; assay: stopped-flow CO2 hydrase assay; format: biochemical
# Ki listing for each entry below
Mention the unit after the number when you answer.

>  <COMPOUND>
COc1cc(/C=C/C(=O)/C=C/c2ccc(S(N)(=O)=O)cc2)cc(OC)c1OC [5h]

>  <Ki>
7.8 nM

$$$$

Query: Identify measured Ki associated with COc1ccc(/C=C/C(=O)/C=C/c2ccc(S(N)(=O)=O)cc2)cc1OC [5e]
Result: 2.3 nM

###

biological target: hCA I (Homo sapiens, UniProt P00915); construct: gene CA1; recombinant, obtained in-house as reported earlier; assay: stopped-flow CO2 hydrase assay; assay type: biochemical
Sequence (P00915 2-261): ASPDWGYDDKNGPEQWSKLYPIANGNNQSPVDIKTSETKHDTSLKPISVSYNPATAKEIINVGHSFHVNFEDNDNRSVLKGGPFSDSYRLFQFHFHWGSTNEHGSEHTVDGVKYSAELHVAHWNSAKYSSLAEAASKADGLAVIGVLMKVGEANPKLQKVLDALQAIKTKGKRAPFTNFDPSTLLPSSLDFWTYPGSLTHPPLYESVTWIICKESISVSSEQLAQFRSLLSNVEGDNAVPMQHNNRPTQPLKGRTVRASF
ENDPOINT NAME: Ki (nM)
// return numeric value only (unit: nM, not printed)

Look over these answered cases.
>  <SMILES INPUT>
COc1ccc(/C=C/C(=O)/C=C/c2ccc(S(N)(=O)=O)cc2)cc1

>  <ENDPOINT UNIT>
nM

>  <Ki>
286

$$$$
>  <SMILES INPUT>
CC(C)Oc1ccc(/C=C/C(=O)/C=C/c2ccc(S(N)(=O)=O)cc2)cc1

>  <ENDPOINT UNIT>
nM

>  <Ki>
417

$$$$
>  <SMILES INPUT>
NS(=O)(=O)c1ccc(/C=C/C(=O)/C=C/c2ccc(Cl)cc2)cc1

>  <ENDPOINT UNIT>
nM

>  <Ki>
373

$$$$
>  <SMILES INPUT>
COc1ccc(/C=C/C(=O)/C=C/c2ccc(S(N)(=O)=O)cc2)cc1OC

>  <ENDPOINT UNIT>
nM

>  <Ki>
295

$$$$
>  <SMILES INPUT>
COc1ccc(/C=C/C(=O)/C=C/c2ccc(S(N)(=O)=O)cc2)c(F)c1

>  <ENDPOINT UNIT>
nM

>  <Ki>
246

$$$$

Query: Identify measured Ki associated with COc1cc(/C=C/C(=O)/C=C/c2ccc(S(N)(=O)=O)cc2)cc(OC)c1OC
Result: 595

Query: Identify measured Ki associated with COc1cc(OC)c(/C=C/C(=O)/C=C/c2ccc(S(N)(=O)=O)cc2)c(OC)c1
Result: 904

Query: Identify measured Ki associated with COc1ccc(/C=C/C(=O)/C=C/c2ccc(S(N)(=O)=O)cc2)c(OC)c1
Result: 848

Query: Identify measured Ki associated with COc1ccc(OC)c(/C=C/C(=O)/C=C/c2ccc(S(N)(=O)=O)cc2)c1
Result: 704

###

target: hCA II (Homo sapiens); construct: gene CA2; recombinant, obtained in-house as reported earlier; assay: stopped-flow CO2 hydrase assay; type: biochemical; details: pH […] Hepes […], […] Na2SO4, CO2 substrate, […] min preincubation at room temperature
ENDPOINT NAME: Ki (nM)
// return numeric value only (unit: nM, not printed)

>  <SMILES INPUT>
COc1ccc(OC)c(/C=C/C(=O)/C=C/c2ccc(S(N)(=O)=O)cc2)c1

>  <TARGET OF ASSAY>
hCA II (Homo sapiens)

>  <Ki, nM>
0.89

$$$$

// next item, Ki requested
Query: Identify measured Ki associated with COc1ccc(/C=C/C(=O)/C=C/c2ccc(S(N)(=O)=O)cc2)cc1OC
Result: 0.75

###

molecular target: hCA II (Homo sapiens, UniProt P00918); construct: gene CA2; recombinant, obtained in-house as reported earlier; assay: stopped-flow CO2 hydrase assay; format: biochemical
Label condition met when Ki < 8 nM; otherwise condition not met.

>  <MOLECULE>
COc1ccc(/C=C/C(=O)/C=C/c2ccc(S(N)(=O)=O)cc2)c(OC)c1 [5c]

>  <TARGET OF ASSAY>
hCA II (Homo sapiens, UniProt P00918)

>  <CAT>
condition met

$$$$
>  <MOLECULE>
COc1cc(/C=C/C(=O)/C=C/c2ccc(S(N)(=O)=O)cc2)cc(OC)c1OC [5h]

>  <TARGET OF ASSAY>
hCA II (Homo sapiens, UniProt P00918)

>  <CAT>
condition not met

$$$$
>  <MOLECULE>
COc1ccc(/C=C/C(=O)/C=C/c2ccc(S(N)(=O)=O)cc2)c(OC)c1OC [5f]

>  <TARGET OF ASSAY>
hCA II (Homo sapiens, UniProt P00918)

>  <CAT>
condition met

$$$$
>  <MOLECULE>
COc1cc(OC)c(/C=C/C(=O)/C=C/c2ccc(S(N)(=O)=O)cc2)c(OC)c1 [5g]

>  <TARGET OF ASSAY>
hCA II (Homo sapiens, UniProt P00918)

>  <CAT>
condition met

$$$$

Consider now this further molecule.
Query: is_below(Ki, 8 nM) for COc1ccc(/C=C/C(=O)/C=C/c2ccc(S(N)(=O)=O)cc2)cc1 [5b] ?
Result: condition met
